Attribution: patent EP4644391A1

- Test system: E. coli ATCC 25922
- protocol: In vitro antibacterial activity assay (MIC, broth dilution)
- Assay type: cell-based
- measurement.setup: Escherichia coli, ATCC25922; Table 3; read-out: E. coli ATCC 25922 MIC
measurement.kind: MIC

Look over these answered cases.
                                 mol_smiles  measurement_kind     result
0  CCCCCCCNS(=O)(=O)c1ccc(-c2cc3c(cc2F)c(=O)c(C(=O)O)cn3-c2ccc(F)cn2)cc1               MIC  ≥ 1 µg/mL
1  CC(C)(C)OC(=O)Nc1ccc(-c2cc3c(cc2F)c(=O)c(C(=O)O)cn3C2CC2)cc1[N+](=O)[O-]               MIC  ≥ 1 µg/mL
2  O=C(O)c1cn(C2CC2)c2c(Cl)c(-c3ccc(S(=O)(=O)NCCCC(F)(F)F)nc3)c(F)cc2c1=O               MIC  ≤ 1 µg/mL

INPUT: Requested field: MIC. Item: Nc1cc(-c2c(F)cc3c(=O)c(C(=O)O)cn(C4CC4)c3c2F)ccc1C(=O)NCC(F)(F)F
OUTPUT: ≤ 1 µg/mL
